- assay.explanation: Rat pharmacokinetic experiment
- Assay type: in vivo
- condition.label: po, male SD rats, gavage (p.o.), 10 mg/kg, plasma
property.name: Cmax (ng/mL)
Answer format: numeric, ng/mL implied, no suffix.

Lookup: Report Cmax for `C[C@H](NC(=O)c1ccc2c(c1)c1nn(C)cc1c(=O)n2-c1ccc(C(F)(F)F)cc1)c1ccccn1` please.
Found: 3870

Lookup: Report Cmax for `C[C@H](NC(=O)c1ccc2c(c1)c1ccccc1c(=O)n2-c1ccc(C(F)(F)F)cc1)c1ccccn1` please.
Found: 1410

Lookup: Report Cmax for `C[C@H](NC(=O)c1ccc2c(c1)c1cnccc1c(=O)n2-c1ccc(C(F)(F)F)cc1)c1ccccn1` please.
Found: 2640

Lookup: Report Cmax for `Cc1cc(=O)n(-c2ccc(C(F)(F)F)cc2)c2ccc(C(=O)N[C@@H](C)c3ccccn3)cc12` please.
Found: 2650

Lookup: Report Cmax for CC(C)NC(=O)c1ccc2c(-c3ccc(C(F)(F)F)cc3)cccc2c1 [Control compound 1, reference compound] please.
Found: 584

Lookup: Report Cmax for `CNS(=O)(=O)c1ccc2c(c1)c1cn(C)nc1c(=O)n2-c1ccc(C(F)(F)F)cc1` please.
Found: 2220

Ref: patent US20250154105A1
